Test system: U2OS
Test: Multiplex assay against U2OS
Assay type: toxicity, cell-based
Conditions: human, 12 h, 10 µM, compound concentration 10 uM, replicate 1
Below, each of the molecules is paired with its reported Population Fragmented Nuclei (%) value.

>  <Molecule>
O=C(NCCNCC(O)COc1ccc(O)cc1)N1CCOCC1.O=C(NCCNCC(O)COc1ccc(O)cc1)N1CCOCC1.O=C(O)/C=C/C(=O)O (centres undefined) [XAMOTEROL FUMARATE]

>  <Target under test>
U2OS

>  <Units symbol>
%

>  <Population Fragmented Nuclei (%)>
28

$$$$
>  <Molecule>
CC(C)C[C@H](CO)Nc1nc(S[C@@H](C)c2ccccc2)nc2nc(N)sc12

>  <Target under test>
U2OS

>  <Units symbol>
%

>  <Population Fragmented Nuclei (%)>
21

$$$$
>  <Molecule>
Cl.Cl.OCCOCCN1CCN(C(c2ccccc2)c2ccc(Cl)cc2)CC1 (centres undefined) [HYDROXYZINE HYDROCHLORIDE]

>  <Target under test>
U2OS

>  <Units symbol>
%

>  <Population Fragmented Nuclei (%)>
20

$$$$
>  <Molecule>
CN1C[C@H](C(=O)N[C@]2(C)O[C@@]3(O)[C@@H]4CCCN4C(=O)[C@H](Cc4ccccc4)N3C2=O)C[C@@H]2c3cccc4[nH]cc(c34)C[C@H]21.CS(=O)(=O)O [DIHYDROERGOTAMINE MESYLATE]

>  <Target under test>
U2OS

>  <Units symbol>
%

>  <Population Fragmented Nuclei (%)>
19

$$$$
>  <Molecule>
O=c1nc2[nH]c3ccccc3nc-2c(=O)[nH]1

>  <Target under test>
U2OS

>  <Units symbol>
%

>  <Population Fragmented Nuclei (%)>
33

$$$$
>  <Molecule>
Cc1ccc(OCC(O)C(C)NC(C)C)c2c1CCC2.Cl (centres undefined)

>  <Target under test>
U2OS

>  <Units symbol>
%

>  <Population Fragmented Nuclei (%)>
30

$$$$
>  <Molecule>
CN1CCC(C(=O)c2cccc(NC(=O)c3c(F)cc(F)cc3F)n2)CC1

>  <Target under test>
U2OS

>  <Units symbol>
%

>  <Population Fragmented Nuclei (%)>
27

$$$$
>  <Molecule>
CCc1nn2c(C)cc(C)nc2c1Cc1ccc(-c2nnc(C3CCNCC3)o2)cc1

>  <Target under test>
U2OS

>  <Units symbol>
%

>  <Population Fragmented Nuclei (%)>
24

$$$$
>  <Molecule>
Cn1cc(C(=O)OCC2CCN(CCNS(C)(=O)=O)CC2)c2ccccc21

>  <Target under test>
U2OS

>  <Units symbol>
%

>  <Population Fragmented Nuclei (%)>
36

$$$$
